So I've got a bunch of molecules here, and I need their solubility values.
- METHOD: Solubility in water and organic solvents
- CONDITIONS: ethanol, organic solvent or mixture

Sample CCCCCCCCCCCCCCCC(=O)NCC(O)c1ccccc1 (stereo not drawn) [Example 3] ; solubility observed: > 10000 µg/mL

Sample CCCCCCCCCCCC(=O)NCCCCO [Example 18, N-(4-hydroxybutyl)-lauroylamide] ; solubility observed: > 10000 µg/mL

Sample CCCCCCCCCCCCCCCC(=O)N[C@H](C)CO [Example 30, N-palmitoyl-[R(-)-2-amino-1-propanol]] ; solubility observed: > 10000 µg/mL

Sample O=C(/C=C/CCCCCCCCC(=O)NCCO)NCCO [Example 26] ; solubility observed: > 10000 µg/mL

Sample CCCCCCCCCCCCCCCC(=O)N[C@H](C)[C@@H](O)c1ccccc1 [Example 5, N-palmitoyl-[(1S,2R)-(+)-norephedrine]] ; solubility observed: > 10000 µg/mL

Sample O=C(/C=C/CCCCCCCCC(=O)N1CCOCC1)N1CCOCC1 [Example 38] ; solubility observed: > 10000 µg/mL

Sample CCCCCCCCCCCCCCCC(=O)NCCOC [Example 35, N-(2-methoxy-ethyl)-palmitoylamide] ; solubility observed: > 10000 µg/mL

Sample CCCCCCCCCCCC(=O)NCCCO [Example 12, N-(3-hydroxypropyl)-lauroylamide] ; solubility observed: > 10000 µg/mL

Sample CCCCCCCCCCCCCCCCCC(=O)NCc1ccc(O)c(OC)c1 [Example 39] ; solubility observed: > 10000 µg/mL

Sample CCCCCCCCCCCCCCCC(=O)NCc1ccc(O)c(OC)c1 [Example 21] ; solubility observed: > 10000 µg/mL

Sample CCCCCC/C=C\CCCCCCCC(=O)NCCO [Example 19, N-(2-hydroxyethyl)-palmitoleylamide] ; solubility observed: > 10000 µg/mL

Sample C=CCCCCCCCCC(=O)NCCO [Example 28, N-(2-hydroxyethyl)-10-undecenoylamide] ; solubility observed: > 10000 µg/mL

Sample CCCCCCCCCCCCCCCC(=O)N[C@@H](C)[C@H](O)c1ccccc1 [Example 7, N-palmitoyl-[(1R,2S)-(-)-norephedrine]] ; solubility observed: > 10000 µg/mL

Sample CCCCCCCCCCCCCCCC(=O)NC[C@@H](C)O [Example 32, N-palmitoyl-[R(-)-1-amino-2-propanol]] ; solubility observed: > 5000 µg/mL

Sample CCCCCCCCCCCCCCCC(=O)NC(CO)CO [Example 15, 2-(N-palmitoylamino)-1,3-propandiol] ; solubility observed: > 5000 µg/mL

Sample CCCCCCCCCCCC(=O)NCCc1ccc(O)cc1 [Example 11, N-(p-hydroxyphenylethyl)-lauroylamide] ; solubility observed: > 10000 µg/mL

Sample CCCCCCCCCCCC(=O)N[C@@H](C)[C@H](O)c1ccccc1 [Example 8, N-lauroyl-[(1R,2S)-(-)-norephedrine]] ; solubility observed: > 10000 µg/mL

Sample CCCCCCCCCCCCCCCC(=O)NC[C@H](C)O [Example 33, N-palmitoyl-[S(+)-1-amino-2-propanol]] ; solubility observed: > 5000 µg/mL

Sourced from patent US5990170A
